Measured values drawn from patent US20210047278A1 for this set.

target of assay: FBW7^ARG+pCycE (Homo sapiens, UniProt Q969H0, R505L)
Construct: GST (TEV site and flexible linker) (N, cleaved yes); made in house; host or cells: SF9 insect cells (baculovirus)
Sequence (Q969H0 64-707 R505L): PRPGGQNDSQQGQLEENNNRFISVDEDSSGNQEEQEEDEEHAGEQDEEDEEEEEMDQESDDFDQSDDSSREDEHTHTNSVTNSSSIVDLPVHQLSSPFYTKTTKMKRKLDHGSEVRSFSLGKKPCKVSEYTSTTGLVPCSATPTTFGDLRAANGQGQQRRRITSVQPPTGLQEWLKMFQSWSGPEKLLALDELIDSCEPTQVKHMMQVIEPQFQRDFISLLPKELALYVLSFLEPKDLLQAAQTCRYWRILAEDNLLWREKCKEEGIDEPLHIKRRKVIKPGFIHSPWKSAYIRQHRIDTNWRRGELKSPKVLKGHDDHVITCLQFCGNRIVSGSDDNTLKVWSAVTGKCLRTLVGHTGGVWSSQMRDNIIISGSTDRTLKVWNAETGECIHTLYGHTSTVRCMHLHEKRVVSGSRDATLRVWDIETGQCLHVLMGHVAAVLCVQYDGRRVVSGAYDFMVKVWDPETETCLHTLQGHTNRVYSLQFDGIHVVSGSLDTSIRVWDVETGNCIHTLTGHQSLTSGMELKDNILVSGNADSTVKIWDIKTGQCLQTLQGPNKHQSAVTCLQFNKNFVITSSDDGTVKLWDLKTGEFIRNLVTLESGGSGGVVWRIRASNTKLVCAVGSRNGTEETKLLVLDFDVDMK
Sequence (P63208 2-163 partner): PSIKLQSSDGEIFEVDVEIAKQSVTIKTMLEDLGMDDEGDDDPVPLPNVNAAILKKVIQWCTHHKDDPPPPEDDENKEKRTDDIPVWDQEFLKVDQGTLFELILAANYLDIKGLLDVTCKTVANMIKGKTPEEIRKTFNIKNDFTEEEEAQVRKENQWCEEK
method: FBW7^ARG-cyclin E agonist ALPHAscreen (primary PRUN, confirmation CRUN1, dose-response DRUN)
Type: binding
condition info: DRUN dose-response, relative to WT-FBW7+pCycE; read-out: FBW7 ACT Averaged Max % Response
outcome measure: Emax (%)
Quick note: give the figure in %, leave out the unit.

{"columns": ["compound", "unit symbol", "recorded number"],
 "data": [
  ["CCC(c1nnnn1CCC(C)C)N1CCN(C(=O)c2ccco2)CC1 (centres unmarked)", "%", 6.45],
  ["Cc1ncn(-c2ccc(Nc3cc(-c4nocc4-c4ccccn4)ccn3)cc2)n1.O=C(O)C(F)(F)F", "%", 12.1],
  ["Fc1ccccc1CSc1nnnn1-c1ccccc1F", "%", 8.63],
  ["CC(C)(C)OC(=O)N/N=C\\c1cccs1", "%", 6.03]
]}

# next compound below
Consider Cc1ccc(-c2cccc3cnc(Nc4ccc(-n5cnc(-c6ccccn6)n5)cc4)nc23)cn1.O=C(O)C(F)(F)F . Its measured Emax is 8.53
